experiment.notes: in vivo
assay.context: male, Sprague-Dawley, rat, plasma, po, 4.8 g/kg
molecules and their reported CL/F

| molecule | CL/F |
| --- | --- |
| N[C@@H](CCC(=O)N[C@@H](CSCc1ccc(O)cc1)C(=O)NCC(=O)O)C(=O)O [4-HBG, S-(4-hydroxybenzyl) glutathione] | 1090 mL/min/kg |
| O=C(O)CC(O)(CC(=O)OCc1ccc(O[C@@H]2O[C@H](CO)[C@@H](O)[C@H](O)[C@H]2O)cc1)C(=O)O (some centres unmarked) | 697 mL/min/kg |
| O=C(CC(O)(CC(=O)OCc1ccc(O[C@@H]2O[C@H](CO)[C@@H](O)[C@H](O)[C@H]2O)cc1)C(=O)O)OCc1ccc(O[C@@H]2O[C@H](CO)[C@@H](O)[C@H](O)[C@H]2O)cc1 | 1740 mL/min/kg |
| O=C(O)CC(O)(CC(=O)OCc1ccc(O[C@@H]2O[C@H](CO)[C@@H](O)[C@H](O)[C@H]2O)cc1)C(=O)OCc1ccc(O[C@@H]2O[C@H](CO)[C@@H](O)[C@H](O)[C@H]2O)cc1 (some centres unmarked) | 2790 mL/min/kg |
| O=C(CC(O)(CC(=O)OCc1ccc(O[C@@H]2O[C@H](CO)[C@@H](O)[C@H](O)[C@H]2O)cc1)C(=O)OCc1ccc(O[C@@H]2O[C@H](CO)[C@@H](O)[C@H](O)[C@H]2O)cc1)OCc1ccc(O[C@@H]2O[C@H](CO)[C@@H](O)[C@H](O)[C@H]2O)cc1 | 8150 mL/min/kg |

----------
molecules and their reported AUC(0-inf)
experiment.notes: in vivo
assay.context: male, Sprague-Dawley, rat, plasma, po, 4.8 g/kg

| molecule | AUC(0-inf), ng·h/mL |
| --- | --- |
| O=C(O)CC(O)(CC(=O)OCc1ccc(O[C@@H]2O[C@H](CO)[C@@H](O)[C@H](O)[C@H]2O)cc1)C(=O)OCc1ccc(O[C@@H]2O[C@H](CO)[C@@H](O)[C@H](O)[C@H]2O)cc1 (some centres unmarked) [PB, Parishin B] | 230 |
| N[C@@H](CCC(=O)N[C@@H](CSCc1ccc(O)cc1)C(=O)NCC(=O)O)C(=O)O [4-HBG, S-(4-hydroxybenzyl) glutathione] | 120 |
| O=C(CC(O)(CC(=O)OCc1ccc(O[C@@H]2O[C@H](CO)[C@@H](O)[C@H](O)[C@H]2O)cc1)C(=O)O)OCc1ccc(O[C@@H]2O[C@H](CO)[C@@H](O)[C@H](O)[C@H]2O)cc1 [PC, Parishin C] | 71.1 |
| O=C(O)CC(O)(CC(=O)OCc1ccc(O[C@@H]2O[C@H](CO)[C@@H](O)[C@H](O)[C@H]2O)cc1)C(=O)O (some centres unmarked) [PE, Parishin E] | 1310 |
| O=C(CC(O)(CC(=O)OCc1ccc(O[C@@H]2O[C@H](CO)[C@@H](O)[C@H](O)[C@H]2O)cc1)C(=O)OCc1ccc(O[C@@H]2O[C@H](CO)[C@@H](O)[C@H](O)[C@H]2O)cc1)OCc1ccc(O[C@@H]2O[C@H](CO)[C@@H](O)[C@H](O)[C@H]2O)cc1 [PA, Parishin A] | 153 |

----------
experiment.notes: Plasma pharmacokinetics of GEB constituents after oral GEB extract in normal and MCAO rats (UPLC-MS/MS, non-compartmental)
assay.context: plasma, MCAO rats, oral GEB extract 4.8 g/kg, n = 8

| compound | Cmax, ng/mL |
| --- | --- |
| O=C(O)CC(O)(CC(=O)OCc1ccc(O[C@@H]2O[C@H](CO)[C@@H](O)[C@H](O)[C@H]2O)cc1)C(=O)O (stereo partly drawn) | 324.9 |
| O=C(CC(O)(CC(=O)OCc1ccc(O[C@@H]2O[C@H](CO)[C@@H](O)[C@H](O)[C@H]2O)cc1)C(=O)OCc1ccc(O[C@@H]2O[C@H](CO)[C@@H](O)[C@H](O)[C@H]2O)cc1)OCc1ccc(O[C@@H]2O[C@H](CO)[C@@H](O)[C@H](O)[C@H]2O)cc1 | 41.5 |
| N[C@@H](CCC(=O)N[C@@H](CSCc1ccc(O)cc1)C(=O)NCC(=O)O)C(=O)O [4-HBG, S-(4-hydroxybenzyl) glutathione] | 24.6 |

----------
experiment.notes: in vivo
assay.context: male, Sprague-Dawley, rat, plasma, po, 4.8 g/kg

| molecule | unit.tag | AUC0-t |
| --- | --- | --- |
| O=C(O)CC(O)(CC(=O)OCc1ccc(O[C@@H]2O[C@H](CO)[C@@H](O)[C@H](O)[C@H]2O)cc1)C(=O)OCc1ccc(O[C@@H]2O[C@H](CO)[C@@H](O)[C@H](O)[C@H]2O)cc1 (some centres unmarked) [PB, Parishin B] | ng·h/mL | 215 |
| O=C(CC(O)(CC(=O)OCc1ccc(O[C@@H]2O[C@H](CO)[C@@H](O)[C@H](O)[C@H]2O)cc1)C(=O)OCc1ccc(O[C@@H]2O[C@H](CO)[C@@H](O)[C@H](O)[C@H]2O)cc1)OCc1ccc(O[C@@H]2O[C@H](CO)[C@@H](O)[C@H](O)[C@H]2O)cc1 [PA, Parishin A] | ng·h/mL | 148 |
| N[C@@H](CCC(=O)N[C@@H](CSCc1ccc(O)cc1)C(=O)NCC(=O)O)C(=O)O [4-HBG, S-(4-hydroxybenzyl) glutathione] | ng·h/mL | 113 |
| O=C(CC(O)(CC(=O)OCc1ccc(O[C@@H]2O[C@H](CO)[C@@H](O)[C@H](O)[C@H]2O)cc1)C(=O)O)OCc1ccc(O[C@@H]2O[C@H](CO)[C@@H](O)[C@H](O)[C@H]2O)cc1 [PC, Parishin C] | ng·h/mL | 56.4 |
| O=C(O)CC(O)(CC(=O)OCc1ccc(O[C@@H]2O[C@H](CO)[C@@H](O)[C@H](O)[C@H]2O)cc1)C(=O)O (some centres unmarked) [PE, Parishin E] | ng·h/mL | 1210 |

----------
experiment.notes: in vivo
assay.context: male, Sprague-Dawley, rat, in vivo, po, 4.8 g/kg

| given.smiles | unit.tag | AUC(0-inf) |
| --- | --- | --- |
| OCc1ccc(O[C@@H]2O[C@H](CO)[C@@H](O)[C@H](O)[C@H]2O)cc1 | ng·h/mL | 6690 |

----------
experiment.notes: in vivo
assay.context: male, Sprague-Dawley, rat, plasma, po, 1200 mg/kg
property.measured: Tmax (h)

| compound | property.measured | unit.tag | reported |
| --- | --- | --- | --- |
| N[C@@H](CCC(=O)N[C@@H](CSCc1ccc(O)cc1)C(=O)NCC(=O)O)C(=O)O [4-HBG, S-(4-hydroxybenzyl) glutathione] | Tmax | h | 2.3 |

----------
experiment.notes: in vivo
assay.context: male, Sprague-Dawley, rat, plasma, po, 4.8 g/kg

| compound | Cmax |
| --- | --- |
| O=C(O)CC(O)(CC(=O)OCc1ccc(O[C@@H]2O[C@H](CO)[C@@H](O)[C@H](O)[C@H]2O)cc1)C(=O)O (stereo partly shown) | 375 ng/mL |
| O=C(CC(O)(CC(=O)OCc1ccc(O[C@@H]2O[C@H](CO)[C@@H](O)[C@H](O)[C@H]2O)cc1)C(=O)OCc1ccc(O[C@@H]2O[C@H](CO)[C@@H](O)[C@H](O)[C@H]2O)cc1)OCc1ccc(O[C@@H]2O[C@H](CO)[C@@H](O)[C@H](O)[C@H]2O)cc1 | 79.8 ng/mL |
| N[C@@H](CCC(=O)N[C@@H](CSCc1ccc(O)cc1)C(=O)NCC(=O)O)C(=O)O [4-HBG, S-(4-hydroxybenzyl) glutathione] | 24.1 ng/mL |
| O=C(CC(O)(CC(=O)OCc1ccc(O[C@@H]2O[C@H](CO)[C@@H](O)[C@H](O)[C@H]2O)cc1)C(=O)O)OCc1ccc(O[C@@H]2O[C@H](CO)[C@@H](O)[C@H](O)[C@H]2O)cc1 | 21.5 ng/mL |

----------
experiment.notes: in vivo
assay.context: male, Sprague-Dawley, rat, in vivo, po, 1200 mg/kg

| given.smiles | unit.tag | Cmax |
| --- | --- | --- |
| OCc1ccc(O[C@@H]2O[C@H](CO)[C@@H](O)[C@H](O)[C@H]2O)cc1 | ng/mL | 6620 |

----------
experiment.notes: Plasma pharmacokinetics of GEB constituents after oral GEB extract in normal and MCAO rats (UPLC-MS/MS, non-compartmental)
assay.context: plasma, MCAO rats, oral GEB extract 4.8 g/kg, n = 8
// label = 1 if MRT0-t is not less than 2 h, otherwise -1

| compound | group |
| --- | --- |
| O=C(CC(O)(CC(=O)OCc1ccc(O[C@@H]2O[C@H](CO)[C@@H](O)[C@H](O)[C@H]2O)cc1)C(=O)OCc1ccc(O[C@@H]2O[C@H](CO)[C@@H](O)[C@H](O)[C@H]2O)cc1)OCc1ccc(O[C@@H]2O[C@H](CO)[C@@H](O)[C@H](O)[C@H]2O)cc1 | -1 |
| O=C(O)CC(O)(CC(=O)OCc1ccc(O[C@@H]2O[C@H](CO)[C@@H](O)[C@H](O)[C@H]2O)cc1)C(=O)OCc1ccc(O[C@@H]2O[C@H](CO)[C@@H](O)[C@H](O)[C@H]2O)cc1 (stereo partly drawn) | -1 |
| OCc1ccc(O[C@@H]2O[C@H](CO)[C@@H](O)[C@H](O)[C@H]2O)cc1 | -1 |
| N[C@@H](CCC(=O)N[C@@H](CSCc1ccc(O)cc1)C(=O)NCC(=O)O)C(=O)O [4-HBG, S-(4-hydroxybenzyl) glutathione] | 1 |
| O=C(CC(O)(CC(=O)OCc1ccc(O[C@@H]2O[C@H](CO)[C@@H](O)[C@H](O)[C@H]2O)cc1)C(=O)O)OCc1ccc(O[C@@H]2O[C@H](CO)[C@@H](O)[C@H](O)[C@H]2O)cc1 | -1 |
| O=C(O)CC(O)(CC(=O)OCc1ccc(O[C@@H]2O[C@H](CO)[C@@H](O)[C@H](O)[C@H]2O)cc1)C(=O)O (stereo partly drawn) | 1 |

Measured values drawn from paper PMC12350473 for this set.
